Reference source for all entries: paper PMC6273820

Known Minimal Inhibitory Concentration, P. aureginosa of a selection of sequences
Test system: Pseudomonas aeruginosa ATCC 27853
Assay: microbe, parasite or virus in culture
Assay type: cell-based
Settings: broth microdilution (CLSI), Mueller-Hinton broth, 18 h at 37 °C, A625nm; peptides n = 8
Where no end group is shown, it is not given here.
attribute.measured: Minimal Inhibitory Concentration, P. aureginosa

{"ordered.residues": "GILKTIKSIASKLKRKAK [P18K]", "measured.on": "Pseudomonas aeruginosa ATCC 27853", "result": ">50 µg/mL"}
{"ordered.residues": "GILKTIKSIASKVANTVQKLKRKAKNAV [FA1]", "measured.on": "Pseudomonas aeruginosa ATCC 27853", "result": "25 µg/mL"}
{"ordered.residues": "FWGLKGLKKFSKKL [Pin2[14]]", "measured.on": "Pseudomonas aeruginosa ATCC 27853", "result": ">50 µg/mL"}
{"ordered.residues": "FWGALAKGALKLIGSLFSSFSKKD [Pin2[G]]", "measured.on": "Pseudomonas aeruginosa ATCC 27853", "result": ">50 µg/mL"}
